test: Anticancer human tumor 997537-175-T-J1-PDC patient-derived colon adenocarcinoma cell line growth inhibition [POLQ]; conditions: 997537-175-T-J1-PDC complex spheroid viability, combination with POLQ inhibitors; second compound 0.316 µM; first compound 1 µM; active compounds read low;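 further: luminescence signal used as a surrogate for viable cells; spheroids exposed to drugs for seven days before readout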
measurement kind: viability, T/C (%)
Only the number, expressed in %, is required.

Examples with their reported viability, T/C follow.
>  <molecule>
CC(C)n1c(=O)n(C)c2cnc3cc(F)c(-c4ccc(OCCCN5CCCCC5)nc4)cc3c21 + Nc1ccc(C#CCN(C(=O)Cc2ncc(C(F)(F)F)cc2C(F)(F)F)c2ccc(F)cc2)nn1

>  <viability, T/C [%]>
89.9

$$$$
>  <molecule>
O=C(Nc1ccc(O)c(NS(=O)(=O)c2ccc(F)cc2)c1)c1ccc(-c2ccccc2)cc1 + COC1C(OC(N)=O)C(O)C(Oc2ccc3c(O)c(NC(=O)c4ccc(O)c(CC=C(C)C)c4)c(=O)oc3c2C)OC1(C)C

>  <viability, T/C [%]>
96

$$$$

Please examine the following record next.
Data request: Read off the recorded viability, T/C for CCc1cc2c(N3CCc4c(cc(Cn5ccnc5)cc4-c4cn(C)nc4C(F)(F)F)C3=O)cc(C)nc2c(OC)n1 + Cc1cccc(N(C)C(=O)C2C(O)CCN2c2nc(C)cc(C(F)(F)F)c2C#N)c1
Data returned: 84.1
